target: Cyclooxygenase (Bos taurus, UniProt O62664+O62698)
So basically: is log IC50 under 2? Then MET. Not under? Then NOT MET.

O=C([O-])Cc1ccccc1Nc1c(F)cccc1Cl.[Na+] = MET

## Input Below 2 on log IC50? Entry COc1c(O)cc(Cl)c(Nc2ccccc2CC(=O)O)c1Cl
## Output MET

## Input Again, but for O=C(O)Cc1ccccc1Nc1ccc(Cl)c(Cl)c1
## Output NOT MET
